- tested-system: α4β1 integrin (Homo sapiens (Human), UniProt P05556+P13612)
- Sequence (P13612 34-1032): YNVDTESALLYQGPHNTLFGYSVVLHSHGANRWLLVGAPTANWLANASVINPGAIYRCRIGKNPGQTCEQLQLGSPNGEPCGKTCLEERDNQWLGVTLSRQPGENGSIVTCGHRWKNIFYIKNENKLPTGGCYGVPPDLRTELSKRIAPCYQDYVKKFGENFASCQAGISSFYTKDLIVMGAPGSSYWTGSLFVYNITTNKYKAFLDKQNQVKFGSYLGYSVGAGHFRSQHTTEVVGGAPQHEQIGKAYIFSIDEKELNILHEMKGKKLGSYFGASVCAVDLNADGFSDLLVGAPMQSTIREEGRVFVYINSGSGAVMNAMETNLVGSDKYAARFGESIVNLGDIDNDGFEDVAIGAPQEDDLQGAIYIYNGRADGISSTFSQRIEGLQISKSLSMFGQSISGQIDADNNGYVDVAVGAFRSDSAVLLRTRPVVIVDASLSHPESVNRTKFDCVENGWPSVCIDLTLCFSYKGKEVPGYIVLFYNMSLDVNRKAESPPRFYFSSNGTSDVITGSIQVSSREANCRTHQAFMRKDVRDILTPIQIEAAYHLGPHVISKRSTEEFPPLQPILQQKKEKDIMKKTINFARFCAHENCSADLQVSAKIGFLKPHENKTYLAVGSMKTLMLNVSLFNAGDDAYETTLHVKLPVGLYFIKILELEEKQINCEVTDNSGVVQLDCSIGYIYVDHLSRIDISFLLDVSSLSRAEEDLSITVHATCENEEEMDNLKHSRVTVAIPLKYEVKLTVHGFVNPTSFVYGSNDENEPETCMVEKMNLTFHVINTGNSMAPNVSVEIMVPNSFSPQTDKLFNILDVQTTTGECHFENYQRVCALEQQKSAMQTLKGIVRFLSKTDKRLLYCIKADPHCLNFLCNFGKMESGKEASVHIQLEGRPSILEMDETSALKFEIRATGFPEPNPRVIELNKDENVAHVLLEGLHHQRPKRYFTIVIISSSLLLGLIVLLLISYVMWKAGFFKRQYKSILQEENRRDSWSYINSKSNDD
- Sequence (P05556 21-798): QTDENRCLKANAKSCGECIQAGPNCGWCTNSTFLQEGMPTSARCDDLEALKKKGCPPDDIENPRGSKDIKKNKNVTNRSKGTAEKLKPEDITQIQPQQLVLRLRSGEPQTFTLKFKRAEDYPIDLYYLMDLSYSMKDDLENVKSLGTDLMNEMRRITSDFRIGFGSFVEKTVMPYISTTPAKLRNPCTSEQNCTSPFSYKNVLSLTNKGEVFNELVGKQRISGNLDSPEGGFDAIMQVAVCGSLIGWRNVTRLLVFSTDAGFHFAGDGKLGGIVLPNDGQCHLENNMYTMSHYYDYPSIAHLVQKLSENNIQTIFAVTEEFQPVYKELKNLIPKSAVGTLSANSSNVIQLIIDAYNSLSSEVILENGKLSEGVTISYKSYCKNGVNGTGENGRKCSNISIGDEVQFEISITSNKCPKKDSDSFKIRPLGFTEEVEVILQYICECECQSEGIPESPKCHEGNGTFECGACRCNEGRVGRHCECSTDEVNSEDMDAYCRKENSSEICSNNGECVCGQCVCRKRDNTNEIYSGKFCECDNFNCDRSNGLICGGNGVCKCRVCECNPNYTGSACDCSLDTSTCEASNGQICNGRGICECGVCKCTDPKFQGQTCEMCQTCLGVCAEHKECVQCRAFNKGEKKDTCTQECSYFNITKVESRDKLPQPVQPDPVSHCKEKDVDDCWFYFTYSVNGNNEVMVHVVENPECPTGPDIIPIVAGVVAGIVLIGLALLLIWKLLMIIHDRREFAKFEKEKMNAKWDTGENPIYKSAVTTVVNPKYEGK
- test-name: Integrin Adhesion Assay: Protocol 5 (VCAM-coated plate, RPMI-8866 cells with stable LOF mutation of the ITGB7 gene)
- Type: cell-based
- applied-conditions: Protocol 5; RPMI-8866 cells with LOF mutation of ITGB7, VCAM; read-out: Mean IC50 α4β1 KO
pIC50: −log10 of the molar value.
Please respond with reported pIC50 for every item in the list.

Name the recorded pIC50 for Cn1c(=O)c(-c2cccc3c(C[C@H](NC(=O)C4(C(F)(F)F)CCN(CC(F)F)CC4)C(=O)O)cccc23)c(C(F)(F)F)c2cc(CN3CCC(c4ccccc4)CC3)ccc21 . 7.00 to 8.00

Name the recorded pIC50 for O=C(O)[C@H](Cc1cccc2c(-c3ncc(CN4CCC5(CCC5)C4)c4ccccc34)cccc12)NC(=O)C1(C(F)(F)F)CCN(CC(F)(F)F)CC1 . < 6.00

Name the recorded pIC50 for CCOCc1cc(CN2CCCCC2)c(-c2cccc3c(C[C@H](NC(=O)c4c(C)cccc4F)C(=O)O)cccc23)c(OC)c1 . 6.00 to 7.00

Name the recorded pIC50 for COc1ccc(CN2CCC(C(F)(F)F)CC2)c(OC)c1-c1cccc2c(C[C@H](NC(=O)C3(C(F)(F)F)CCN(CC(F)(F)F)CC3)C(=O)O)cccc12 . 6.00 to 7.00

Name the recorded pIC50 for CC1(C)CCCN(Cc2cnc(-c3cccc4c(C[C@H](NC(=O)C5(C(F)(F)F)CCN(CC(F)(F)F)CC5)C(=O)O)cccc34)c3ccccc23)C1 . < 6.00

Name the recorded pIC50 for Cc1cccc(C)c1-c1cc(F)c(C(=O)N[C@@H](Cc2cccc3c(-n4c(=O)cc(CCN5CC(F)C5)n(C)c4=O)cccc23)C(=O)O)c(F)c1 . < 6.00

Name the recorded pIC50 for COc1cc(CN2CCC(F)CC2)cc(OC)c1-c1cccc2c(C[C@H](NC(=O)C3(C(F)(F)F)CCN(CC(F)(F)F)CC3)C(=O)O)cccc12 . 6.00 to 7.00

Name the recorded pIC50 for COc1cccc(CCN2CCC(F)CC2)c1-c1cccc2c(C[C@H](NC(=O)C3(C(F)(F)F)CCN(CC(F)(F)F)CC3)C(=O)O)cccc12 . 6.00 to 7.00

Name the recorded pIC50 for COc1ccc(CN2CC3CCCCC3C2)c(OC)c1-c1cccc2c(C[C@H](NC(=O)C3(C(F)(F)F)CCN(CC(F)(F)F)CC3)C(=O)O)cccc12 (some centres unmarked) . < 6.00

Name the recorded pIC50 for CN(Cc1cnc(-c2cccc3c(C[C@H](NC(=O)C4(C(F)(F)F)CCN(CC(F)(F)F)CC4)C(=O)O)cccc23)c2ccccc12)CC(F)(F)F . < 6.00

Name the recorded pIC50 for Cc1cccc(F)c1C(=O)N[C@@H](Cc1cccc2c(-c3c(C(F)(F)F)c4cc(CCN(C)C)ccc4n(C)c3=O)cccc12)C(=O)O . 6.00 to 7.00

Name the recorded pIC50 for O=C(O)[C@H](Cc1cccc2c(-c3nccc4cccc(CCN5CCCCC5)c34)cccc12)NC(=O)C1(C(F)(F)F)CCN(CC(F)(F)F)CC1 . < 6.00

Name the recorded pIC50 for Cc1cccc(F)c1C(=O)N[C@@H](Cc1cccc2c(-c3c(C(F)(F)F)c4cc(CCN5CCCC5)ccc4n(C)c3=O)cccc12)C(=O)O . 6.00 to 7.00

Name the recorded pIC50 for C[C@@H]1CN(Cc2cnc(-c3cccc4c(C[C@H](NC(=O)C5(C(F)(F)F)CCN(CC(F)(F)F)CC5)C(=O)O)cccc34)c3ccccc23)C[C@H](C)N1C1CC1 . 6.00 to 7.00

Name the recorded pIC50 for O=C(O)[C@H](Cc1cccc2c(-c3ncc(CN4C5CCCC4CC5)c4ccccc34)cccc12)NC(=O)C1(C(F)(F)F)CCN(CC(F)F)CC1 . < 6.00

Name the recorded pIC50 for COC1CN(Cc2cnc(-c3cccc4c(C[C@H](NC(=O)C5(C(F)(F)F)CCN(CC(F)(F)F)CC5)C(=O)O)cccc34)c3ccccc23)C1 . < 6.00

Name the recorded pIC50 for Cc1c(CCN2CCC(F)(F)CC2)ccnc1-c1cccc2c(C[C@H](NC(=O)C3(C(F)(F)F)CCN(CC(F)(F)F)CC3)C(=O)O)cccc12 . < 6.00

Name the recorded pIC50 for Cc1cccc(F)c1C(=O)N[C@@H](Cc1cccc2c(-c3c(C(F)(F)F)c4cc(CCCN(C)C)ccc4n(C)c3=O)cccc12)C(=O)O . 6.00 to 7.00

Name the recorded pIC50 for Cc1cc(CN2CCCCC2)cnc1-c1cccc2c(C[C@H](NC(=O)C3(C(F)(F)F)CCN(CC(F)F)CC3)C(=O)O)cccc12 . < 6.00

Name the recorded pIC50 for COc1ccc(CN(C)C)c(Cl)c1-c1cccc2c(C[C@H](NC(=O)c3c(C)cccc3F)C(=O)O)cccc12 . 6.00 to 7.00

Name the recorded pIC50 for O=C(O)[C@H](Cc1cccc2c(-c3nccc4ccccc34)cccc12)NC(=O)C1(C(F)(F)F)CCN(CC(F)(F)F)CC1 . < 6.00

Name the recorded pIC50 for COc1ccc(CN2CCCCC2)nc1-c1cccc2c(C[C@H](NC(=O)c3c(C)cccc3F)C(=O)O)cccc12 . 6.00 to 7.00

Name the recorded pIC50 for O=C(O)[C@H](Cc1cccc2c(-c3ncccc3CN3CCCCC3)cccc12)NC(=O)C1(C(F)(F)F)CCN(CC(F)(F)F)CC1 . < 6.00

* * *

Please respond with reported IC50 for every item in the list.
- tested-system: α4β1 integrin (Homo sapiens (Human), UniProt P05556+P13612)
- test-name: Integrin Adhesion Assay: Protocol 2 (VCAM-coated plate, Jurkat cells, CellTiter GLO readout)
- Format: cell-based
- applied-conditions: determined by at least one of the assays described (protocol not specified)

Name the recorded IC50 for Cn1ccc(=O)n(-c2cccc3c(C[C@H](NC(=O)c4c(F)cc(N5CCOC[C@@H]5C(F)(F)F)cc4CN4CCOCC4)C(=O)O)cccc23)c1=O . 100 to 1000 nM

Name the recorded IC50 for Cn1ccc(=O)n(-c2cccc3c(C[C@H](NC(=O)C4(Cc5ccc(F)cc5)CCC(F)(F)CC4)C(=O)O)cccc23)c1=O . > 1000 nM

Name the recorded IC50 for CN1CCN(Cc2cc(N3CCOC[C@@H]3C(F)(F)F)cc(F)c2C(=O)N[C@@H](Cc2cccc3c(-n4c(=O)ccn(C)c4=O)cccc23)C(=O)O)CC1 . > 1000 nM

* * *

- tested-system: α4β7 integrin (Homo sapiens (Human), UniProt P13612+P26010)
- Sequence (P13612 34-1032): as the sequence (P13612 34-1032) above
- Sequence (P26010 20-798): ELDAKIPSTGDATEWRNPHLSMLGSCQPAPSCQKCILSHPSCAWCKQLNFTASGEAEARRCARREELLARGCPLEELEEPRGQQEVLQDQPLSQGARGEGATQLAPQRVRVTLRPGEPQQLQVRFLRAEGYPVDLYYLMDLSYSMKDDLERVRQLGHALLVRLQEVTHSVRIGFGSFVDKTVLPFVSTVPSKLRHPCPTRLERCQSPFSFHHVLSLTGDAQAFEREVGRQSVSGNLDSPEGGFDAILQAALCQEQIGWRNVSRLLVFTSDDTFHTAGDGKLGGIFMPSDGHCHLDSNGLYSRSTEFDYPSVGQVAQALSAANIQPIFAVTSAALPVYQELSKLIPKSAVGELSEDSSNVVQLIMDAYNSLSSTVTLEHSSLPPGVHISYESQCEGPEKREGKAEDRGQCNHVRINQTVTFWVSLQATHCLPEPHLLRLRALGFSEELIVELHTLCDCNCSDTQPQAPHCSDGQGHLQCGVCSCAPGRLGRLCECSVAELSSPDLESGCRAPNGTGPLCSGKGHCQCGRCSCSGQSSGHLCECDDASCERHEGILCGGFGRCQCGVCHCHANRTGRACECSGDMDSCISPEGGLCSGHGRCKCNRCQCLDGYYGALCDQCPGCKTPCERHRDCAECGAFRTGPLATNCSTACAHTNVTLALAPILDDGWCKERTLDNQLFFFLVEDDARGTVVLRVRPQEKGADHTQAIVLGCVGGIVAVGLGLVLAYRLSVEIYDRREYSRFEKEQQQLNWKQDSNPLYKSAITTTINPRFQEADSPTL
- test-name: Integrin Adhesion Assay: Protocol 4 (MAdCAM-coated plate, RPMI-8866 cells with stable LOF mutation of the ITGB1 gene)
- Format: cell-based
- applied-conditions: RPMI-8866 cells with stable LOF mutation of the ITGB1 gene; read-out: Mean IC50 α4β7 KO^a
recorded-endpoint: IC50

// fetch α4β7 integrin (Homo sapiens (Human), UniProt P13612+P26010) IC50 for Cn1c(=O)c(-c2cccc3c(C[C@H](NC(=O)C4(C(F)(F)F)CCN(C5(C(F)(F)F)CC5)CC4)C(=O)O)cccc23)c(C(F)(F)F)c2ccccc21 > 1000 nM

// fetch α4β7 integrin (Homo sapiens (Human), UniProt P13612+P26010) IC50 for COc1ccc(CN2CCC(C(C)(C)C)CC2)c(OC)c1-c1cccc2c(C[C@H](NC(=O)c3c(C)cccc3F)C(=O)O)cccc12 < 10 nM

// fetch α4β7 integrin (Homo sapiens (Human), UniProt P13612+P26010) IC50 for COc1cc(CCN(C)C)cc(OC)c1-c1cccc2c(C[C@H](NC(=O)C3(C(F)(F)F)CCN(CC(F)(F)F)CC3)C(=O)O)cccc12 < 10 nM

// fetch α4β7 integrin (Homo sapiens (Human), UniProt P13612+P26010) IC50 for COc1ccc(CN(C)C)c(OC)c1-c1cccc2c(C[C@H](NC(=O)C3(C(F)(F)F)CCN(CC(F)(F)F)CC3)C(=O)O)cccc12 < 10 nM

// fetch α4β7 integrin (Homo sapiens (Human), UniProt P13612+P26010) IC50 for CN1CCC(c2cc(F)c(C(=O)N[C@@H](Cc3cccc4c(-c5c(C(F)(F)F)c6ccccc6n(C)c5=O)cccc34)C(=O)O)c(F)c2)C1 (stereo partly drawn) 100 to 1000 nM

// fetch α4β7 integrin (Homo sapiens (Human), UniProt P13612+P26010) IC50 for Cn1c(=O)c(-c2cccc3c(C[C@H](NC(=O)C4(C(F)(F)F)CCN([C@H](C5CC5)C(F)(F)F)CC4)C(=O)O)cccc23)c(C(F)(F)F)c2ccccc21 > 1000 nM

// fetch α4β7 integrin (Homo sapiens (Human), UniProt P13612+P26010) IC50 for CCc1cccc(F)c1C(=O)N[C@@H](Cc1cccc2c(-c3c(CN4CCCCC4)cccc3OC)cccc12)C(=O)O < 10 nM

// fetch α4β7 integrin (Homo sapiens (Human), UniProt P13612+P26010) IC50 for COc1cccc(CCCN(C)C)c1-c1cccc2c(C[C@H](NC(=O)C3(C(F)(F)F)CCN(CC(F)(F)F)CC3)C(=O)O)cccc12 < 10 nM

// fetch α4β7 integrin (Homo sapiens (Human), UniProt P13612+P26010) IC50 for Cn1c(=O)c(-c2cccc3c(C[C@H](NC(=O)C4(C)CCCN(CC5COC5)C4)C(=O)O)cccc23)c(C(F)(F)F)c2ccccc21 (stereo partly drawn) 100 to 1000 nM

// fetch α4β7 integrin (Homo sapiens (Human), UniProt P13612+P26010) IC50 for COc1ccc(CN2C(C)CCC2C)c(OC)c1-c1cccc2c(C[C@H](NC(=O)c3c(C)cccc3F)C(=O)O)cccc12 (stereo partly drawn) 10 to 100 nM

// fetch α4β7 integrin (Homo sapiens (Human), UniProt P13612+P26010) IC50 for COc1cc2c(c(OC)c1-c1cccc3c(C[C@H](NC(=O)C4(C(F)(F)F)CCN(CC(F)(F)F)CC4)C(=O)O)cccc13)CN(C)CC2 < 10 nM

// fetch α4β7 integrin (Homo sapiens (Human), UniProt P13612+P26010) IC50 for COc1ccc2ccncc2c1-c1cccc2c(C[C@H](NC(=O)C3(C(F)(F)F)CCN(CC(F)(F)F)CC3)C(=O)O)cccc12 < 10 nM

// fetch α4β7 integrin (Homo sapiens (Human), UniProt P13612+P26010) IC50 for Cn1c(=O)c(-c2cccc3c(C[C@H](NC(=O)c4c(F)cc(N5CCOC[C@@H]5c5ccccc5)cc4F)C(=O)O)cccc23)c(C(F)(F)F)c2ccccc21 100 to 1000 nM

// fetch α4β7 integrin (Homo sapiens (Human), UniProt P13612+P26010) IC50 for O=C(O)[C@H](Cc1cccc2c(-c3ncc(CN4CCCCC4)c4ccccc34)cccc12)NC(=O)C1(C(F)(F)F)CCN([C@@H]2COCC2(F)F)CC1 < 10 nM

// fetch α4β7 integrin (Homo sapiens (Human), UniProt P13612+P26010) IC50 for COc1ccc(CN2CCC(F)(F)CC2)c(OC)c1-c1cccc2c(C[C@H](NC(=O)C3(C(F)(F)F)CCN([C@H]4COC[C@H]4F)CC3)C(=O)O)cccc12 < 10 nM

// fetch α4β7 integrin (Homo sapiens (Human), UniProt P13612+P26010) IC50 for Cc1cccc(F)c1C(=O)N[C@@H](Cc1cccc2c(-c3c(C(F)(F)F)c4cc(N(C)C)ccc4n(C)c3=O)cccc12)C(=O)O 100 to 1000 nM

// fetch α4β7 integrin (Homo sapiens (Human), UniProt P13612+P26010) IC50 for Cn1c(=O)c(-c2cccc3c(C[C@H](NC(=O)c4c(F)cc(CCN5CC(F)C5)cc4F)C(=O)O)cccc23)c(C(F)(F)F)c2ccccc21 100 to 1000 nM

// fetch α4β7 integrin (Homo sapiens (Human), UniProt P13612+P26010) IC50 for COc1ccc2cccnc2c1-c1cccc2c(C[C@H](NC(=O)c3c(F)cccc3F)C(=O)O)cccc12 100 to 1000 nM

// fetch α4β7 integrin (Homo sapiens (Human), UniProt P13612+P26010) IC50 for COc1cccc(CN2CCCCC2)c1-c1cccc2c(C[C@H](NC(=O)C3(C(F)(F)F)CCN(CC(F)(F)F)CC3)C(=O)O)cccc12 < 10 nM

// fetch α4β7 integrin (Homo sapiens (Human), UniProt P13612+P26010) IC50 for COc1ccc(CN2CCC(F)C2)c(OC)c1-c1cccc2c(C[C@H](NC(=O)c3c(C)cccc3F)C(=O)O)cccc12 (stereo partly drawn) < 10 nM

// fetch α4β7 integrin (Homo sapiens (Human), UniProt P13612+P26010) IC50 for Cn1c(=O)c(-c2cccc3c(C[C@H](NC(=O)C4(C(F)(F)F)CCN(CCF)CC4)C(=O)O)cccc23)c(C(F)(F)F)c2ccccc21 < 10 nM

// fetch α4β7 integrin (Homo sapiens (Human), UniProt P13612+P26010) IC50 for COc1cccc(CN2CCCCC2)c1-c1cccc2c(C[C@H](NC(=O)c3c(F)cccc3C(C)C)C(=O)O)cccc12 < 10 nM

// fetch α4β7 integrin (Homo sapiens (Human), UniProt P13612+P26010) IC50 for Cn1c(=O)c(-c2cccc3c(C[C@H](NC(=O)c4c(F)cccc4CN4CCC(F)(F)C4)C(=O)O)cccc23)c(C(F)(F)F)c2ccccc21 10 to 100 nM

// fetch α4β7 integrin (Homo sapiens (Human), UniProt P13612+P26010) IC50 for COc1cncc(OC)c1-c1cccc2c(C[C@H](NC(=O)c3c(C)cccc3F)C(=O)O)cccc12 < 10 nM
